Tested on: MCF10A
Assay: one-nucleolus phenotype percent effect (relative to siNT 0% and siNOL11 100%); higher = more cells with one nucleolus (ribosome biogenesis inhibition)
Conditions: 20 nM; 72 h
Catalogue of one-nucleolus phenotype percent effect values
Write the answer as a number in %, unit excluded.

Exercise: Which measured one-nucleolus phenotype percent effect value corresponds to CUUUCAGUCGGAUGUUUGCAGC [hsa-miR-30a-3p] ?
Solution: 1.29

Exercise: Which measured one-nucleolus phenotype percent effect value corresponds to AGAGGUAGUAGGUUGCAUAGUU [hsa-let-7d-5p] ?
Solution: -18.5

---

System: MCF10A
Experiment: 5+ nucleoli phenotype percent effect (relative to siNT 0% and siKIF11 100%); higher = more cells with five or more nucleoli
Details: 20 nM; 72 h
Catalogue of 5+ nucleoli phenotype percent effect values
Write the answer as a number in %, unit excluded.

The cases that follow already have their 5+ nucleoli phenotype percent effect on record.
> print(dat)
                             input.sequence                               measure  measured.value
1  AGACACAUUUGGAGAGGGAACC [hsa-miR-642a-3p]  5+ nucleoli phenotype percent effect              16
2   CAGGCCAUAUUGUGCUGCCUCA [hsa-miR-15a-3p]  5+ nucleoli phenotype percent effect           -27.1
3  CAAGCCUCUCCUGCCCUUCCAG [hsa-miR-7109-3p]  5+ nucleoli phenotype percent effect            31.1
4  AAAGUGCAUCCUUUUAGAGUGU [hsa-miR-519a-3p]  5+ nucleoli phenotype percent effect            44.1
5   UCGAGGAGCUCACAGUCUAGU [hsa-miR-151a-5p]  5+ nucleoli phenotype percent effect            9.84
6  UGUAGUUGUAUUGUAUUGCCAC [hsa-miR-4703-3p]  5+ nucleoli phenotype percent effect           -29.5
7   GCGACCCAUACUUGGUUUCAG [hsa-miR-551b-3p]  5+ nucleoli phenotype percent effect            23.7
8   UUCCUAUGCAUAUACUUCUUUG [hsa-miR-202-5p]  5+ nucleoli phenotype percent effect            12.8

Exercise: Which measured 5+ nucleoli phenotype percent effect value corresponds to UUCCAGCCCUUCUAAUGGUAGG [hsa-miR-6512-3p] ?
Solution: -33.4

Exercise: Which measured 5+ nucleoli phenotype percent effect value corresponds to CAUCUGGCAUCCGUCACACAGA [hsa-miR-3126-3p] ?
Solution: -5.56

Exercise: Which measured 5+ nucleoli phenotype percent effect value corresponds to AGGGCAUGUCCAGGGGGU [hsa-miR-4253] ?
Solution: 17.7
